B1: Pistol ribozyme (parent)
chain: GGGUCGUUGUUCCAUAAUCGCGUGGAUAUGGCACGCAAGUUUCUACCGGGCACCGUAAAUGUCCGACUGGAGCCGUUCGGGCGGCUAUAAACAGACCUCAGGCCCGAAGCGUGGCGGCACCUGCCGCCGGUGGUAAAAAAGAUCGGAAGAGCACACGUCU

variants of: B1; assay: aptazyme ON/OFF ratio, guanine; higher = stronger switching; co-transcriptional cleavage with and without guanine
# aptazyme ON/OFF ratio listing for each entry below
Could you keep your reply to the number by itself?

Please give the measured aptazyme ON/OFF ratio for this variant: U7C G9C U10C U11G C12G
1.14

Please give the measured aptazyme ON/OFF ratio for this variant: U7A U8C G9A U10G U11A C13G
1.05

Please give the measured aptazyme ON/OFF ratio for this variant: U7C U8C U11A C12G C13G
1.12

Please give the measured aptazyme ON/OFF ratio for this variant: U7A G9A U10C U11G C12G C13A
1.17

Please give the measured aptazyme ON/OFF ratio for this variant: U8A U11G C12G
1.18

Please give the measured aptazyme ON/OFF ratio for this variant: U7A G9U U10C C12A C13G
1.14

Please give the measured aptazyme ON/OFF ratio for this variant: U8G G9C U10A U11G C13U
1.05
